assay: yeast display, Sf9 membrane polyspecificity reagent, FACS + sequencing; frameworks hold sequencing errors
ENDPOINT_NAME: polyreactivity (PSR sort gate)

Some sequences with known polyreactivity (PSR sort gate) results, for comparison:
{"RECORD_SEQUENCE": "QVQLVESGGGLVQAGGSLRLSCAASGRIFASYGMGWYRQAPGKETELVATINSSGGSTYYADSVKGRFTISRDNAKNTVYLQLKSLKPEDTAVYYSNARHGYYKYGYWGQGTQVTVSS", "polyreactivity (PSR sort gate)": "low polyreactivity"}
{"RECORD_SEQUENCE": "QVQLVESGGGLVQAGGSLRLSCAASGRIFKTYAMGWYRQAPGKERELDAAITASGGRTYYADSVKGRFTISRDNAKNTVYLQMNSLKPEDTAVYYCAADSGNEYDYWGQGTQVTVSS", "polyreactivity (PSR sort gate)": "high polyreactivity"}
{"RECORD_SEQUENCE": "QVQLVESGGGLVQAGGSLRLSCAASGSTFDSYGMGWYRLAPGKERELVAPSTSRGASTNYADSVKGRFTISRDTAKNTVYLQMTSLKPEDTAVYYCNREVPWWLYKYDGHDYWGQATQVTVSS", "polyreactivity (PSR sort gate)": "low polyreactivity"}
{"RECORD_SEQUENCE": "QVQLVESGGGLVQAGGSLRLSCAASGSTLQINGMGWYRQAPGKERELVAAISIGSDTNYADSVKGRFTISRDNAKNTEMNSLKPEDTAVYYCAAQRRYHQDTTIGPGNYYYWGQGTQVTVSS", "polyreactivity (PSR sort gate)": "low polyreactivity"}

Here's the next entry for you.
Q: Reported polyreactivity (PSR sort gate) for QVQLVESGGGLVQAGGSLRLSCAASGSTFAKYVMGWYRQAHGKERELVAAISRRGSSTYYADSVKGRFTISRDNAKNTVYLQMNSLKPEDTAVYYCAARFRYSGFEGMDYWGQGTQVTVSS : what is it?
Result: high polyreactivity
